// reported activity change, negative = inhibition for each item listed
target: D(1A) dopamine receptor (Homo sapiens); test: Antagonist of Human D 1 Dopamine Receptor: qHTS; conditions: HEK293 TREx D1 cells, calcium flux, dopamine EC80; at 10 µM; active compounds read low; also: % is scaled to controls: 0 for no effect and ±100 for the full control effect
About 11,000 (3.1%) of roughly 360,000 compounds were called active. Only a selection was taken, and actives are over-represented in it overall.
ATTRIBUTE_MEASURED: activity change, negative = inhibition

| COMPOUND | OBSERVED_MEASUREMENT |
| --- | --- |
| CCCC(=O)Nc1cc(OCC)c(NC(=O)NC2CCCCC2)cc1OCC | -5.85% (inactive) |
| CC(=O)Nc1cc(C(=O)NCc2ccc(F)cc2Cl)ccc1Sc1ccc(Cl)cc1 | 9.87% (inactive) |
| Cc1ccc(NC(=O)OCCNC(=O)c2ccncc2)cc1 | -26.6% (inactive) |
| O=C1CSc2ccc(S(=O)(=O)NCc3ccccc3)cc2N1 | -44.7% (active) |
| CCOc1cc(NC(=S)NCCCN(C)C)c(OCC)cc1NC(=O)C1CC1 | -3.38% (inactive) |
| CCOC(=O)c1ccc(NC(=O)C2CCN(S(=O)(=O)c3ccc4c(c3)CCCC(=O)N4)CC2)cc1 | 2.67% (inactive) |
| CCOc1cc(NC(=S)NCCCOC)c(OCC)cc1NC(=O)c1ccco1 | -35.1% (active) |
| COc1cc(C(CC(=O)NCCC(C)C)N2Cc3ccccc3C2=O)cc(OC)c1OC (stereo not drawn) | -5.18% (inactive) |
| Cc1ccc(-c2nc(C#N)c(NCCCn3ccnc3)o2)cc1 | 5.54% (inactive) |
| CCC(Cc1ccccc1)NS(=O)(=O)c1ccc2c(c1)NC(=O)CS2 (stereo not drawn) | -0.0752% (inactive) |
| CCCCC(CCC(=O)Nc1ccc(C(=O)OCC)cc1)C(=O)O (stereo not drawn) | -5.38% (inactive) |
| COc1ccccc1CNS(=O)(=O)c1ccc2c(c1)NC(=O)CS2 | 7.86% (inactive) |
| COc1cccc(CNCCSc2nnnn2C)c1OCc1ccccc1Cl | -5.2% (inactive) |

###

molecular target: D(1A) dopamine receptor (Homo sapiens) (UniProt P21728); assay: Antagonist of Human D 1 Dopamine Receptor: qHTS; details: HEK293 TREx D1 cells, calcium flux, dopamine EC80; at 10 µM; active compounds read low; also: % is scaled to controls: 0 for no effect and ±100 for the full control effect
Sequence (P21728 whole entry, looked up): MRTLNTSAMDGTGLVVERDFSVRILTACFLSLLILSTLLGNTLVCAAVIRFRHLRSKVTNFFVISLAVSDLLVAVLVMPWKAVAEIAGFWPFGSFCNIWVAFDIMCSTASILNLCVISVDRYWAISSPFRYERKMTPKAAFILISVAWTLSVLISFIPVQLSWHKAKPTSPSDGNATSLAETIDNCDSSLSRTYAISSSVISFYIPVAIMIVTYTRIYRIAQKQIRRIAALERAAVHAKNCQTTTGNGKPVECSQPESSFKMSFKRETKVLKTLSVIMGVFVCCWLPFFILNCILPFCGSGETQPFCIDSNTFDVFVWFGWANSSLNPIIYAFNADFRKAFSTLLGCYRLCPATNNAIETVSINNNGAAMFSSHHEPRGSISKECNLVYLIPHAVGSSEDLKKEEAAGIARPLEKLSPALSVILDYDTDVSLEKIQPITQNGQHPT
The campaign covered roughly 360,000 compounds. About 11,000 (3.1%) were called active. What follows is part of a selection rich in actives, with near analogues and random picks from the rest.
ATTRIBUTE_MEASURED: activity change, negative = inhibition (%)

| COMPOUND | SYSTEM_UNDER_TEST | ATTRIBUTE_MEASURED | OBSERVED_MEASUREMENT |
| --- | --- | --- | --- |
| NS(=O)(=O)c1ccc(NS(=O)(=O)/C=C/c2ccccc2)cc1 | D(1A) dopamine receptor (Homo sapiens) (UniProt P21728) | activity change, negative = inhibition | 4.29 |
| O=C(CSc1ccc([N+](=O)[O-])cn1)Nc1ccc(N2CCOCC2)cc1 | D(1A) dopamine receptor (Homo sapiens) (UniProt P21728) | activity change, negative = inhibition | 0.609 |
| Cc1ccc(-c2nc(SCc3ccc(Br)cc3)n3[nH]c(=O)cc3n2)cc1 | D(1A) dopamine receptor (Homo sapiens) (UniProt P21728) | activity change, negative = inhibition | -5.43 |
| N#CC1(NC(=O)COC(=O)CCN=C2NS(=O)(=O)c3ccccc32)CCCCC1 | D(1A) dopamine receptor (Homo sapiens) (UniProt P21728) | activity change, negative = inhibition | -2.93 |
| COc1ccc(S(=O)(=O)N2CCN(C)CC2)c(C)c1 | D(1A) dopamine receptor (Homo sapiens) (UniProt P21728) | activity change, negative = inhibition | -0.84 |
| CC1=C(C(=O)OCC2CCCCC2)C(c2c(F)cccc2Cl)CC(=O)N1 (configuration not stated) | D(1A) dopamine receptor (Homo sapiens) (UniProt P21728) | activity change, negative = inhibition | -8.23 |
| CCOC(=O)c1c(C)[nH]c(C)c1S(=O)(=O)N1CCCC(C(=O)NCc2ccccc2Cl)C1 (configuration not stated) | D(1A) dopamine receptor (Homo sapiens) (UniProt P21728) | activity change, negative = inhibition | -3.63 |
| CC1Cc2ccccc2N1C(=O)CSc1nnc(-c2ccc(S(=O)(=O)N3CCCC3)cc2)n1C (configuration not stated) | D(1A) dopamine receptor (Homo sapiens) (UniProt P21728) | activity change, negative = inhibition | -5.59 |
| CCN(C(=O)Cn1cc(S(=O)(=O)N2CCN(c3ccccc3F)CC2)c2ccccc2c1=O)c1ccc(C)c(C)c1 | D(1A) dopamine receptor (Homo sapiens) (UniProt P21728) | activity change, negative = inhibition | -3.49 |
| CCN(CCCNC(=O)c1c(C)oc2ncn(CC(C)C)c(=O)c12)Cc1ccccc1 | D(1A) dopamine receptor (Homo sapiens) (UniProt P21728) | activity change, negative = inhibition | 0.919 |
| CC1Cc2ccccc2N1C(=O)CSc1nnc(C2CC2)n1C (configuration not stated) | D(1A) dopamine receptor (Homo sapiens) (UniProt P21728) | activity change, negative = inhibition | -45.3 |
| COc1cccc(CNC(=O)Cn2c(=O)c3cccn3c3ccc(F)cc32)c1OC | D(1A) dopamine receptor (Homo sapiens) (UniProt P21728) | activity change, negative = inhibition | 4 |
| N#CCC(=O)N/N=C/c1cn(Cc2ccc3ccccc3c2)c2ccccc12 | D(1A) dopamine receptor (Homo sapiens) (UniProt P21728) | activity change, negative = inhibition | 16.1 |
| COC(=O)[C@H](Cc1ccccc1)NC(=O)Nc1ccc(S(N)(=O)=O)cc1 | D(1A) dopamine receptor (Homo sapiens) (UniProt P21728) | activity change, negative = inhibition | -6.59 |
| COc1ccc(Cn2c(=O)c3oc4ccccc4c3n(CC(=O)Nc3ccc(F)cc3F)c2=O)cc1 | D(1A) dopamine receptor (Homo sapiens) (UniProt P21728) | activity change, negative = inhibition | -7.86 |
| CCc1ccc(NC(=O)N2CCN(C(=O)c3nsc4ccccc34)CC2)cc1 | D(1A) dopamine receptor (Homo sapiens) (UniProt P21728) | activity change, negative = inhibition | -22.5 |
| O=C(CSc1n[nH]c(-c2cccnc2)n1)Nc1ccc(Cl)cc1 | D(1A) dopamine receptor (Homo sapiens) (UniProt P21728) | activity change, negative = inhibition | 24.7 |
| COc1ccc2c(Sc3ccc(C)cc3)c(C(=O)NC(C)c3ccccc3)[nH]c2c1 (configuration not stated) | D(1A) dopamine receptor (Homo sapiens) (UniProt P21728) | activity change, negative = inhibition | -2.66 |
| Cc1ccc(S(=O)(=O)c2nc(-c3ccco3)oc2SCC(=O)Nc2ccc(F)cc2)cc1 | D(1A) dopamine receptor (Homo sapiens) (UniProt P21728) | activity change, negative = inhibition | -3.5 |
| CCOC(=O)c1[nH]c(C)c(CCC(=O)NCc2ccccc2C)c1C | D(1A) dopamine receptor (Homo sapiens) (UniProt P21728) | activity change, negative = inhibition | -16.9 |
| CN(Cc1ccccc1)c1ncnc2onc(-c3ccc(F)cc3)c12 | D(1A) dopamine receptor (Homo sapiens) (UniProt P21728) | activity change, negative = inhibition | -1.84 |
| O=C(Nc1ccc(-c2nc3cc(NC(=O)c4ccccc4Cl)ccc3o2)cc1)c1ccccc1Cl | D(1A) dopamine receptor (Homo sapiens) (UniProt P21728) | activity change, negative = inhibition | 6.02 |
| O=C(CSc1ccccc1)Nc1ccc(C(=O)Nc2cccc(O)c2)cc1 | D(1A) dopamine receptor (Homo sapiens) (UniProt P21728) | activity change, negative = inhibition | -29.1 |
| CCS(=O)(=O)n1nc(-c2ccccc2)nc1SCc1ccccc1 | D(1A) dopamine receptor (Homo sapiens) (UniProt P21728) | activity change, negative = inhibition | -30.7 |
| COC(=O)c1scc(-c2ccccc2)c1S(=O)(=O)Nc1ccccc1 | D(1A) dopamine receptor (Homo sapiens) (UniProt P21728) | activity change, negative = inhibition | -7.67 |
| CC(C)Cc1nnc(NC(=O)CCc2ccccc2)s1 | D(1A) dopamine receptor (Homo sapiens) (UniProt P21728) | activity change, negative = inhibition | 3.92 |
| CCS(=O)(=O)n1nc(-c2ccc(OC)cc2)nc1SC | D(1A) dopamine receptor (Homo sapiens) (UniProt P21728) | activity change, negative = inhibition | -19.3 |
| O=C(OCCN=C1NS(=O)(=O)c2ccccc21)c1cccc([N+](=O)[O-])c1 | D(1A) dopamine receptor (Homo sapiens) (UniProt P21728) | activity change, negative = inhibition | -6.81 |
| NS(=O)(=O)c1ccc(Nc2nc(-c3ccccc3)cs2)cc1 | D(1A) dopamine receptor (Homo sapiens) (UniProt P21728) | activity change, negative = inhibition | -31.8 |
| Cc1ccc(S(=O)(=O)CCC(=O)Nc2nnc(CC(C)C)s2)cc1 | D(1A) dopamine receptor (Homo sapiens) (UniProt P21728) | activity change, negative = inhibition | 6.37 |
| O=C(CSc1nccc(=O)[nH]1)Nc1ccc(N2CCOCC2)c(Cl)c1 | D(1A) dopamine receptor (Homo sapiens) (UniProt P21728) | activity change, negative = inhibition | -3.03 |
| CN(C)c1ccc(C(CNS(=O)(=O)c2cc(F)ccc2F)N2CCOCC2)cc1 (configuration not stated) | D(1A) dopamine receptor (Homo sapiens) (UniProt P21728) | activity change, negative = inhibition | -3.66 |
| Cc1ccc(Nc2ccc3cc(S(=O)(=O)N4CCCCC4)ccc3n2)cc1F | D(1A) dopamine receptor (Homo sapiens) (UniProt P21728) | activity change, negative = inhibition | -15.5 |
| CCOC(=O)Cn1c(=O)n(-c2ccccc2OC)c2nc(-c3cccc(F)c3)nc(C(N)=O)c21 | D(1A) dopamine receptor (Homo sapiens) (UniProt P21728) | activity change, negative = inhibition | -25 |
| CCCCOc1ccc(C(=O)Nc2cccc(-c3nc4ccccc4o3)c2C)cc1 | D(1A) dopamine receptor (Homo sapiens) (UniProt P21728) | activity change, negative = inhibition | -0.438 |
| COc1ccccc1NC(=O)CSc1oc(-c2ccco2)nc1S(=O)(=O)c1ccc(Br)cc1 | D(1A) dopamine receptor (Homo sapiens) (UniProt P21728) | activity change, negative = inhibition | -50.6 |
| O=C(CSc1ccc([N+](=O)[O-])cn1)Nc1ccc(N2CCOCC2)c(Cl)c1 | D(1A) dopamine receptor (Homo sapiens) (UniProt P21728) | activity change, negative = inhibition | -35.4 |
